Tested on: TYRO3;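 note: KINOMEscan kinase panel screen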
Settings: concentration: 1 μM, replicates: in singlicate; n = 1
Could you please report measured %Inh for the items listed next?
Enter your answer as a number in %; do not include the unit.

Inquiry: State its %Inh on TYRO3: Nc1nccc2scc(-c3ccc4c(c3)CCN4C(=O)Cc3cc(F)ccc3F)c12
Reply text: 0

Inquiry: State its %Inh on TYRO3: CCn1c(-c2ccncc2)nc2cnccc21
Reply text: 26

Inquiry: State its %Inh on TYRO3: CCC(CC)(CC)n1cnc2c(N)ncnc21
Reply text: 12

Inquiry: State its %Inh on TYRO3: Nc1nc(-c2cccnc2)c(-c2ccnc3ccccc23)s1
Reply text: 0

Inquiry: State its %Inh on TYRO3: Cc1ccc(NC(=O)c2cccc(C#N)c2)cc1-c1ccc(C(=O)Nc2ccncc2)cc1
Reply text: 0

Inquiry: State its %Inh on TYRO3: O=C(CCO)NCCn1ccc2ncnc(Nc3ccc(Oc4cccc(C(F)(F)F)c4)c(Cl)c3)c21
Reply text: 0

Inquiry: State its %Inh on TYRO3: CCc1nc(-c2cccc(N(C)S(=O)(=O)c3ccccc3)c2)c(-c2ccnc(Nc3ccc(N4CCN(C(C)=O)CC4)nc3)n2)s1
Reply text: 0

Inquiry: State its %Inh on TYRO3: Cn1ccc2ncnc(Nc3ccc(Oc4cccc(Cl)c4)c(Cl)c3)c21
Reply text: 4

Inquiry: State its %Inh on TYRO3: Clc1ccc(-c2cc(-c3c[nH]nc3-c3ccccn3)ccn2)cc1
Reply text: 0

Inquiry: State its %Inh on TYRO3: O=C(c1ccc(-c2cc(-c3c[nH]nc3-c3ccccn3)ccn2)cc1)N1CCCC1
Reply text: 0

Inquiry: State its %Inh on TYRO3: COC(=O)c1cccc(NC(=O)NCCNc2ccnc(Nc3ccc(F)cc3)n2)c1
Reply text: 0

Inquiry: State its %Inh on TYRO3: FC(F)(F)c1ccc(-c2cc(-c3c[nH]nc3-c3ccccn3)ccn2)cc1
Reply text: 0

Inquiry: State its %Inh on TYRO3: OCCOCCn1ccc2ncnc(Nc3ccc(Oc4cccc(Cl)c4)c(Cl)c3)c21
Reply text: 0

Inquiry: State its %Inh on TYRO3: CC(=O)Nc1n[nH]c2ncc(-c3ccccc3)cc12
Reply text: 0

Inquiry: State its %Inh on TYRO3: Nc1nc(-c2ccc3c(N)n[nH]c3c2)cc(N2CCC[C@@H](C(=O)Nc3ccccc3)C2)n1.O=C(O)C(F)(F)F.O=C(O)C(F)(F)F
Reply text: 0

Inquiry: State its %Inh on TYRO3: Fc1ccc(-c2ncn(CCCNCc3ccccc3)c2-c2ccncc2)cc1
Reply text: 0

Inquiry: State its %Inh on TYRO3: CS(=O)(=O)CCNCc1ccc(-c2ccc3ncnc(Nc4ccc(OCc5ccccc5)c(Cl)c4)c3c2)o1.Cl
Reply text: 0

Inquiry: State its %Inh on TYRO3: CC(C)(C)OC(=O)NC1CCCN(c2cc(-c3ccc4c(N)n[nH]c4c3)nc(N)n2)C1 (centres unmarked)
Reply text: 0

Inquiry: State its %Inh on TYRO3: COc1ccc(NC(=O)Nc2ccc(C)c(-c3ccc(C(=O)Nc4ccncc4)cc3)c2)cc1
Reply text: 0

Inquiry: State its %Inh on TYRO3: FC(F)(F)c1ccc(-c2nn3ncccc3c2-c2ccnc(Nc3cccc(C(F)(F)F)c3)n2)cc1
Reply text: 0

Inquiry: State its %Inh on TYRO3: FC(F)(F)c1cc(Nc2nccc(-c3c(-c4ccc(Cl)cc4)nn4ncccc34)n2)ccc1Cl
Reply text: 0

Inquiry: State its %Inh on TYRO3: Cc1ccc(O)cc1Nc1cc(C(F)(F)F)nc2ccc(-c3ccncc3)cc12
Reply text: 36

Inquiry: State its %Inh on TYRO3: Cl.Cl.c1ccc(-c2cc3ccncc3cc2OC2CCNCC2)cc1
Reply text: 7

Inquiry: State its %Inh on TYRO3: Cl.c1ccc(Cn2ncc3cc(Nc4ncnc5ccccc45)ccc32)cc1
Reply text: 0

Inquiry: State its %Inh on TYRO3: O=C(Nc1n[nH]c2nc(-c3ccco3)c(Br)cc12)c1ccc(CN2CCCC2)cc1.O=C(O)[C@H](O)[C@@H](O)C(=O)O
Reply text: 0

Inquiry: State its %Inh on TYRO3: COc1ccc(Nc2nccc(N3CCC(NC(=O)c4cccc(NC(C)=O)c4)C3)n2)cc1 (centres unmarked)
Reply text: 0

Inquiry: State its %Inh on TYRO3: Nc1nc(-c2ccccn2)c(-c2ccnc3ccccc23)s1
Reply text: 0

Inquiry: State its %Inh on TYRO3: O=C(Nc1ccccc1)Nc1ccc(Oc2ccc3nccn3n2)cc1
Reply text: 19

Inquiry: State its %Inh on TYRO3: CNc1nccc(-c2c(-c3ccc(F)cc3)ncn2C2CCN(C)CC2)n1
Reply text: 0

Inquiry: State its %Inh on TYRO3: Cl.Cn1ccc(-c2cccc(Nc3ccnc4cc(-c5nccs5)ccc34)c2)n1
Reply text: 0

Inquiry: State its %Inh on TYRO3: O=c1cc(N2CCOCC2)nc2n(Cc3cccc(Cl)c3)ccn12
Reply text: 9

Inquiry: State its %Inh on TYRO3: CN1c2ccc(-c3ccc(C(=O)NCCO)cc3)cc2-c2[nH]ncc2S1(=O)=O
Reply text: 25
